Each entry below carries its recorded pIC50.
Biological target: DCN1 (DCUND1) protein PONY domain (Homo sapiens (Human))
Sequence (Q96GG9 60-248): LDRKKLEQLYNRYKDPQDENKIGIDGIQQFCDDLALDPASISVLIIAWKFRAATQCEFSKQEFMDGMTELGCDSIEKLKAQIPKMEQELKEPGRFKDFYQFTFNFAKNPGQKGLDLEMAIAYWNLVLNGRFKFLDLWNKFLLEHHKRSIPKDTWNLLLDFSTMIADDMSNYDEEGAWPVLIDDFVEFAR
Test: TR-FRET assay, DCN1 binding with FAM-labeled probe
Details: 24 hr after treatment with compound; read-out: TR FRET IC50 24 hr
pIC50: −log10 of the molar value.

Would you please look over these solved cases?
Q: Missing value: pIC50, DCN1 (DCUND1) protein PONY domain (Homo sapiens (Human)), entry CCN1C(=O)[C@H](NC(=O)c2cccc(C(F)(F)F)c2)[C@H](c2ccc(F)cc2)c2c([C@@H](C)NC#N)nn(-c3ccccc3)c21 . Fill in?
A: 5.52 to 6.00

Q: Try CCN1C(=O)[C@@H](NC(=O)c2cccc(C(F)(F)F)c2)[C@@H](c2ccc(F)cc2)c2c(C(=O)N3CS(=O)(=O)C[C@H]3C#N)nn(C3CCOCC3)c21 (mixture of isomers) next.
A: ≥ 6.70

Q: Try CCN1C(=O)[C@@H](NC(=O)C2CCOc3ccccc32)[C@@H](C2CC2)c2c(C(=O)N3[C@H](C#N)C[C@H]4C[C@H]43)nn(C3CCOCC3)c21 (stereo partly shown) next.
A: 5.52 to 6.00

Q: Try CCN1C(=O)[C@@H](NC(=O)c2cccc(C(F)(F)F)c2)[C@@H](c2ccc(F)cc2)c2c(C(=O)N(C)[C@H](C#N)CCN(C)C3COC3)nn(-c3ccccc3)c21 next.
A: ≥ 6.70

Q: Try CCN1C(=O)[C@@H](NC(=O)c2cccc(C(F)(F)F)c2)[C@@H](C2CC2)c2c(C(=O)N3[C@H](C#N)C[C@@H]4C[C@@H]43)nn(C3CCOCC3)c21 next.
A: 6.00 to 6.70

Q: Try CCN1C(=O)[C@@H](NC(=O)c2cccc(C(F)(F)F)c2)[C@@H](c2ccc(F)cc2)c2c([C@@H](C)NC#N)nn(-c3ccccc3)c21 next.
A: ≥ 6.70

Q: Try CCN1C(=O)[C@@H](NC(=O)[C@@H]2CCc3nccc(=O)n32)[C@@H](C2CC2)c2c(C(=O)N3[C@H](C#N)C[C@H]4C[C@H]43)nn(C3CCOCC3)c21 next.
A: 5.52 to 6.00

Q: Try N#C[C@@H]1C[C@H]2C[C@H]2N1C(=O)c1nn(C2CCOCC2)c2c1[C@H](C1CC1)[C@H](NC(=O)c1cccc(C(F)(F)F)c1)C(=O)N2C1CC1 next.
A: ≥ 6.70

---
Q: Missing value: pIC50, DCN1 (DCUND1) protein PONY domain (Homo sapiens (Human)), entry CCN1C(=O)[C@@H](NC(=O)c2ccn(C(F)(F)F)n2)[C@@H](c2ccc(F)cc2)c2c(C(=O)N3[C@H](C#N)C[C@H]4C[C@H]43)nn(-c3ccccc3)c21 . Fill in?
A: ≥ 6.70

Q: Try CCN1C(=O)[C@@H](NC(=O)c2sc(NC(C)=O)nc2C)[C@@H](C2CC2)c2c(C(=O)N3[C@H](C#N)C[C@H]4C[C@H]43)nn(C3CCOCC3)c21 next.
A: 5.52 to 6.00
